B1: COX4I1 (parent)
chain: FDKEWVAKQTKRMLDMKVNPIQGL

Variants of: B1
Assay: protein stability index of a GFP-peptide fusion (GPS, HEK-293T) (PSI 1-6); higher = more stable;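 also: lentivirally expressed fusions sorted by FACS into six bins by GFP to DsRed ratio, PSI derived from sequencing read proportions per bin multiplied by bin number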
Settings: c terminus: a fixed tail appended
endpoint: protein stability index
I'd appreciate a reply containing only the number, no unit.

Qu. Fill in the blank: the reported protein stability index of `V6Y` is ____.
Ans. 1.6

Qu. Fill in the blank: the reported protein stability index of `L24I` is ____.
Ans. 2.3

Qu. Fill in the blank: the reported protein stability index of `K3P` is ____.
Ans. 1.75

Qu. Fill in the blank: the reported protein stability index of `K3L` is ____.
Ans. 2.06

Qu. Fill in the blank: the reported protein stability index of `V6H` is ____.
Ans. 2.06

Qu. Fill in the blank: the reported protein stability index of `K8W` is ____.
Ans. 3.04

Qu. Fill in the blank: the reported protein stability index of `L14V` is ____.
Ans. 1.41

Qu. Fill in the blank: the reported protein stability index of `V18R` is ____.
Ans. 2.19

Qu. Fill in the blank: the reported protein stability index of `K3Y` is ____.
Ans. 2.13

Qu. Fill in the blank: the reported protein stability index of `W5H` is ____.
Ans. 2.84

Qu. Fill in the blank: the reported protein stability index of `Q9A` is ____.
Ans. 3.55

Qu. Fill in the blank: the reported protein stability index of `K8Y` is ____.
Ans. 2.59

Qu. Fill in the blank: the reported protein stability index of `N19D` is ____.
Ans. 1.79

Qu. Fill in the blank: the reported protein stability index of `D2W` is ____.
Ans. 1.52

Qu. Fill in the blank: the reported protein stability index of `G23Q` is ____.
Ans. 2.02

Qu. Fill in the blank: the reported protein stability index of `K8C` is ____.
Ans. 2.68

Qu. Fill in the blank: the reported protein stability index of `I21T` is ____.
Ans. 1.83

Qu. Fill in the blank: the reported protein stability index of `M13Q` is ____.
Ans. 2.99

Qu. Fill in the blank: the reported protein stability index of `F1I` is ____.
Ans. 3.11

Qu. Fill in the blank: the reported protein stability index of `V18H` is ____.
Ans. 1.94

Qu. Fill in the blank: the reported protein stability index of `A7S` is ____.
Ans. 1.11

Qu. Fill in the blank: the reported protein stability index of `L14C` is ____.
Ans. 1.38

Qu. Fill in the blank: the reported protein stability index of `W5S` is ____.
Ans. 3.61

Qu. Fill in the blank: the reported protein stability index of `D2E` is ____.
Ans. 1.89

Qu. Fill in the blank: the reported protein stability index of `G23V` is ____.
Ans. 1.59

Qu. Fill in the blank: the reported protein stability index of `K11T` is ____.
Ans. 1.92

Qu. Fill in the blank: the reported protein stability index of `V18F` is ____.
Ans. 1.42

Qu. Fill in the blank: the reported protein stability index of `M13C` is ____.
Ans. 2.17

Qu. Fill in the blank: the reported protein stability index of `D2A` is ____.
Ans. 2.65

Qu. Fill in the blank: the reported protein stability index of `G23C` is ____.
Ans. 3.51

Qu. Fill in the blank: the reported protein stability index of `W5R` is ____.
Ans. 3.98

Qu. Fill in the blank: the reported protein stability index of `D2R` is ____.
Ans. 1.27

Qu. Fill in the blank: the reported protein stability index of `D15Q` is ____.
Ans. 1.6

Qu. Fill in the blank: the reported protein stability index of `P20G` is ____.
Ans. 2.17

Qu. Fill in the blank: the reported protein stability index of `L24R` is ____.
Ans. 2.09

Qu. Fill in the blank: the reported protein stability index of `I21W` is ____.
Ans. 2.17

Qu. Fill in the blank: the reported protein stability index of `G23I` is ____.
Ans. 1.81

Qu. Fill in the blank: the reported protein stability index of `M16F` is ____.
Ans. 1.62

Qu. Fill in the blank: the reported protein stability index of `R12I` is ____.
Ans. 1.96

Qu. Fill in the blank: the reported protein stability index of `K11A` is ____.
Ans. 1.84

Qu. Fill in the blank: the reported protein stability index of `Q22H` is ____.
Ans. 1.93

Qu. Fill in the blank: the reported protein stability index of `K3A` is ____.
Ans. 2.17

Qu. Fill in the blank: the reported protein stability index of `N19G` is ____.
Ans. 1.94

Qu. Fill in the blank: the reported protein stability index of `I21Q` is ____.
Ans. 1.78

Qu. Fill in the blank: the reported protein stability index of `N19R` is ____.
Ans. 1.71

Qu. Fill in the blank: the reported protein stability index of `Q9L` is ____.
Ans. 2.08

Qu. Fill in the blank: the reported protein stability index of `M13S` is ____.
Ans. 2.4

Qu. Fill in the blank: the reported protein stability index of `F1P` is ____.
Ans. 3.44

Qu. Fill in the blank: the reported protein stability index of `D15T` is ____.
Ans. 1.84

Qu. Fill in the blank: the reported protein stability index of `D15G` is ____.
Ans. 1.75

Qu. Fill in the blank: the reported protein stability index of `K17G` is ____.
Ans. 1.51

Qu. Fill in the blank: the reported protein stability index of `K3Q` is ____.
Ans. 2.85

Qu. Fill in the blank: the reported protein stability index of `N19V` is ____.
Ans. 2.22

Qu. Fill in the blank: the reported protein stability index of `D2T` is ____.
Ans. 1.35

Qu. Fill in the blank: the reported protein stability index of `F1Q` is ____.
Ans. 3.31

Qu. Fill in the blank: the reported protein stability index of `K11R` is ____.
Ans. 1.92

Qu. Fill in the blank: the reported protein stability index of `E4W` is ____.
Ans. 1.66

Qu. Fill in the blank: the reported protein stability index of `L24T` is ____.
Ans. 1.35

Qu. Fill in the blank: the reported protein stability index of `V6M` is ____.
Ans. 1.93

Qu. Fill in the blank: the reported protein stability index of `T10W` is ____.
Ans. 1.82

Qu. Fill in the blank: the reported protein stability index of `V18S` is ____.
Ans. 1.81

Qu. Fill in the blank: the reported protein stability index of `N19C` is ____.
Ans. 2.23

Qu. Fill in the blank: the reported protein stability index of `F1A` is ____.
Ans. 3.42

Qu. Fill in the blank: the reported protein stability index of `Q22C` is ____.
Ans. 1.29

Qu. Fill in the blank: the reported protein stability index of `V18A` is ____.
Ans. 1.79

Qu. Fill in the blank: the reported protein stability index of `K3R` is ____.
Ans. 1.66

Qu. Fill in the blank: the reported protein stability index of `Q9K` is ____.
Ans. 2.62

Qu. Fill in the blank: the reported protein stability index of `K8R` is ____.
Ans. 2.42

Qu. Fill in the blank: the reported protein stability index of `W5A` is ____.
Ans. 3.96

Qu. Fill in the blank: the reported protein stability index of `K3F` is ____.
Ans. 1.87

Qu. Fill in the blank: the reported protein stability index of `F1Y` is ____.
Ans. 1.71

Qu. Fill in the blank: the reported protein stability index of `V18Y` is ____.
Ans. 2.87

Qu. Fill in the blank: the reported protein stability index of `Q9T` is ____.
Ans. 2.87

Qu. Fill in the blank: the reported protein stability index of `R12V` is ____.
Ans. 2.27

Qu. Fill in the blank: the reported protein stability index of `K3D` is ____.
Ans. 2.57
